test system: UACC-62; test: NCI tumour cell line growth inhibition, 48 h
Active and inactive are the calls of the source. No stated cut-off is given here; in the data, active = GI50 up to about 1.1 µM and inactive = higher.
Return exactly one item of active, inactive

I would be grateful if you could indicate the recorded call for S=C(N/N=C(/c1ccccc1)c1ccccn1)N1CCCCCC1 .
active

I would be grateful if you could indicate the recorded call for Cc1c(-c2cnccn2)ssc1=S .
inactive

I would be grateful if you could indicate the recorded call for CC(C)=CC(=O)CC(=O)C(=O)Nc1ccc(C)c(C)c1 .
inactive

I would be grateful if you could indicate the recorded call for CN(C)CCC1(C2=CCCC2)CC/C(=C\c2ccccc2Cl)C1=O (stereo not given) .
inactive

I would be grateful if you could indicate the recorded call for NC1N=C(c2ccc(Cl)cc2)C2=C(N1)c1ccccc1CC2 (stereo not given) .
inactive

I would be grateful if you could indicate the recorded call for O=C(Cc1nc(-c2ccccc2)cc(=O)n1-c1ccccc1Cl)c1ccncc1 .
inactive

I would be grateful if you could indicate the recorded call for COC(=O)C(C#N)C1NC(=O)c2ccccc21 (stereo not given) .
inactive

I would be grateful if you could indicate the recorded call for N#CN1CC[C@@H]2CC3(CCC2C1)OCCO3 (stereo not given in full) .
inactive

I would be grateful if you could indicate the recorded call for CCOc1cc2c(cc1O)/C(=N\N)C[C@@H]1[C@@H]2CC[C@]2(C)[C@@H](O)CC[C@@H]12 .
active

I would be grateful if you could indicate the recorded call for O=C1Nc2cc(Cl)ccc2C(=O)N2CCC[C@@H]12 .
inactive

I would be grateful if you could indicate the recorded call for CCC1CCC2c3c([nH]c4ccc(C)cc34)C3C(=O)N(N(C)C)C(=O)C3C2C1 (stereo not given) .
inactive

I would be grateful if you could indicate the recorded call for NCCCn1c2ccccc2c2c3c(c4c(c21)CCC(O)CC4)C(=O)NC3=O (stereo not given) .
inactive

I would be grateful if you could indicate the recorded call for COC(=O)CN(CC(=O)NCCNC(=O)OC(C)(C)C)C1CCCCC1N(CC(=O)OC)CC(=O)OC (stereo not given) .
inactive

I would be grateful if you could indicate the recorded call for COC(=O)CCCC(=O)/C(=N\Nc1ccc(Cl)cc1)Nc1c(Cl)cccc1Cl .
inactive

I would be grateful if you could indicate the recorded call for Cc1cccc(-n2c(=S)[nH]c3c(sc(=O)n3-c3ccccc3C)c2=O)c1 .
inactive

I would be grateful if you could indicate the recorded call for OC1C2CCCCN2C[C@@H](O)[C@H]1O (stereo not given in full) .
inactive

I would be grateful if you could indicate the recorded call for N#Cc1nc(-c2ccccc2C(=O)O)oc1N .
inactive

I would be grateful if you could indicate the recorded call for Nc1ccc(S(=O)(=O)Nc2nc3ccccc3nc2N2CCCCCC2)cc1 .
inactive

I would be grateful if you could indicate the recorded call for c1ccc(-c2cnc3nc4ccccc4nc3n2)cc1 .
inactive

I would be grateful if you could indicate the recorded call for O=C1Nc2c(Cl)cccc2/C1=N/Nc1ccccc1[N+](=O)[O-] .
inactive

I would be grateful if you could indicate the recorded call for O=C(Nc1ccc([N+](=O)[O-])cc1[N+](=O)[O-])C(=O)C(C(=O)c1ccc(Cl)c(Cl)c1)C1OC(=O)c2ccccc21 (stereo not given) .
inactive

I would be grateful if you could indicate the recorded call for C[N+]1=c2c3cccc4cccc(c(=O)n2CCC1)c43 .
inactive

I would be grateful if you could indicate the recorded call for CC1CN(C)c2ccccc2N=C1NN (stereo not given) .
inactive

I would be grateful if you could indicate the recorded call for NS(=O)(=O)c1ccc(NC2(C(=O)O)CCCC2)cc1 .
inactive

I would be grateful if you could indicate the recorded call for O=c1c(Cc2ccccc2)c(-c2ccccc2)[nH]n1C1=NCCN1 .
inactive

I would be grateful if you could indicate the recorded call for Cc1cc(C)c(C#N)c(SC(=S)NC(=O)c2ccc(Cl)cc2)n1 .
inactive

I would be grateful if you could indicate the recorded call for CN(C)Cc1cc(/C(=C(\C#N)c2ccccc2)c2ccc(O)cc2)ccc1O .
inactive

I would be grateful if you could indicate the recorded call for O=C(Nc1ccc(Cl)cc1)c1cc2c(cc1Cl)SC(NNCCO)=NS2(=O)=O .
inactive

I would be grateful if you could indicate the recorded call for c1ccc(C/C(=N\Nc2nc3ccccc3o2)c2ccccn2)cc1 .
active

I would be grateful if you could indicate the recorded call for N#CCc1nc(-c2cc3ccccc3oc2=O)cs1 .
inactive

I would be grateful if you could indicate the recorded call for Cc1cccc(/N=N/c2ccc(O)c(CN(C)C)c2)c1 .
inactive

I would be grateful if you could indicate the recorded call for Brc1ccc(/N=N/c2ccc3ccccc3n2)cc1 .
inactive

I would be grateful if you could indicate the recorded call for C=C1C(=O)O[C@H]2C1[C@H](OC(=O)/C(C)=C\COC(C)=O)C[C@]1(CO1)[C@@H]1[C@H](O)[C@H]3O[C@@]3(C)[C@@H]12 (stereo not given in full) .
inactive

I would be grateful if you could indicate the recorded call for COc1ccc2nc(/C(N)=C\C#N)ccc2c1 .
inactive

I would be grateful if you could indicate the recorded call for O=C(CC(=O)Nc1ccccc1Cl)NNC(Sc1ccccc1)c1cc(/N=N/c2ccc(Br)cc2)ccc1O (stereo not given) .
inactive

Where do these numbers come from? They come from ChEMBL document CHEMBL1201862.
